Where do these numbers come from? They come from patent US11547681B2.

# Measurement protocol: in vitro
# Assay setup: male, Beagle, dog, 60 min, 1 μM
Recorded Concentration (μM) of analyte PEA, 60 min by entry
Quantity name: Concentration (μM) of analyte PEA, 60 min (µM)

Compound	Endpoint value
CCCCCCCCCCCCCCCC(=O)NCCOC(=O)CCC	0.11
CC/C=C\C/C=C\C/C=C\C/C=C\C/C=C\CCCC(=O)OCCNC(=O)CCCCCCCCCCCCCCC	0.038
CCCCCCCCCCCCCCCC(=O)NCCOC(=O)CCC(=O)OCC(COC(=O)CCC)OC(=O)CCC (stereo not shown)	0.13
CCCCC/C=C\C/C=C\CCCCCCCC(=O)OCCNC(=O)CCCCCCCCCCCCCCC	0.037
CCCCCCCCCCCCCCCC(=O)NCCOC(=O)CCC(=O)OCC(COC(=O)CCCCCCC)OC(=O)CCCCCCC (stereo not shown) [Compound I-3, PEA-Succinate-Glycerol-Di-Caprylic]	0.029
CCCCCCCCCCCCCCCC(=O)NCCOC(=O)CCC(=O)OCC(O)CO (stereo not shown)	0.078
CCCCCCCCCCCCCCCC(=O)NCCOC(=O)CCC(=O)OC[C@H]1O[C@@](CO)(O[C@H]2O[C@H](CO)[C@@H](O)[C@H](O)[C@H]2O)[C@@H](O)[C@@H]1O	0.049

###

# Measurement protocol: in vitro
# Assay setup: male, Sprague-Dawley, rat, s9, 0 h, 1 μM
# Procedure: The reaction mixture, minus cofactors, was prepared as described below. The test article was added into the reaction mixture at a final concentration of 1 μM. […] Half-lives were calculated using GraphPad software, fitting to single-phase exponential decay equation. Reaction mixture, minus cofactors, was prepared as described below. […] Halflives were calculated using GraphPad software, fitting to a single-phase exponential decay equation. […]
Reported % Remaining of Initial (n = 1), 0 min values for the following compounds.

Compound	Readout units	% Remaining of Initial (n = 1), 0 min
CCCCCCCCCCCCCCCC(=O)NCCOC(=O)CCC(=O)OCC(O)CO (stereo not shown)	%	100
CCCCC/C=C\C/C=C\CCCCCCCC(=O)OCCNC(=O)CCCCCCCCCCCCCCC	%	100
CCCCCCCCCCCCCCCC(=O)NCCOC(=O)CCC(=O)OCC(COC(=O)CCCCCCC)OC(=O)CCCCCCC (stereo not shown) [Compound I-3, PEA-Succinate-Glycerol-Di-Caprylic]	%	100
CCCCCCCCCCCCCCCC(=O)NCCOC(=O)CCC	%	100
CC/C=C\C/C=C\C/C=C\C/C=C\C/C=C\CCCC(=O)OCCNC(=O)CCCCCCCCCCCCCCC	%	100
CCCCCCCCCCCCCCCC(=O)NCCOC(=O)CCC(=O)OCC(COC(=O)CCC)OC(=O)CCC (stereo not shown)	%	100
CCCCCCCCCCCCCCCC(=O)NCCOC(=O)CCC(=O)OC[C@H]1O[C@@](CO)(O[C@H]2O[C@H](CO)[C@@H](O)[C@H](O)[C@H]2O)[C@@H](O)[C@@H]1O	%	100

###

# Measurement protocol: in vitro
# Assay setup: male, Sprague-Dawley, rat, 10 min, 1 μM
Here the recorded Concentration (μM) of analyte PEA, 10 min is given for each entry.
Quantity name: Concentration (μM) of analyte PEA, 10 min

Compound	Endpoint value
CCCCCCCCCCCCCCCC(=O)NCCOC(=O)CCC(=O)OC[C@H]1O[C@@](CO)(O[C@H]2O[C@H](CO)[C@@H](O)[C@H](O)[C@H]2O)[C@@H](O)[C@@H]1O	0.15 µM
CCCCCCCCCCCCCCCC(=O)NCCOC(=O)CCC(=O)OCC(COC(=O)CCC)OC(=O)CCC (stereo not drawn)	0.14 µM
CCCCCCCCCCCCCCCC(=O)NCCOC(=O)CCC(=O)OCC(COC(=O)CCCCCCC)OC(=O)CCCCCCC (stereo not drawn) [Compound I-3, PEA-Succinate-Glycerol-Di-Caprylic]	0.045 µM
